- experimental target: T1, human MCAM (melanoma cell adhesion molecule) expressed on transfected CHO cells (human, UniProt P43121 24-646)
- T1 construct: also called hMCAM; CD146
- T1 chain: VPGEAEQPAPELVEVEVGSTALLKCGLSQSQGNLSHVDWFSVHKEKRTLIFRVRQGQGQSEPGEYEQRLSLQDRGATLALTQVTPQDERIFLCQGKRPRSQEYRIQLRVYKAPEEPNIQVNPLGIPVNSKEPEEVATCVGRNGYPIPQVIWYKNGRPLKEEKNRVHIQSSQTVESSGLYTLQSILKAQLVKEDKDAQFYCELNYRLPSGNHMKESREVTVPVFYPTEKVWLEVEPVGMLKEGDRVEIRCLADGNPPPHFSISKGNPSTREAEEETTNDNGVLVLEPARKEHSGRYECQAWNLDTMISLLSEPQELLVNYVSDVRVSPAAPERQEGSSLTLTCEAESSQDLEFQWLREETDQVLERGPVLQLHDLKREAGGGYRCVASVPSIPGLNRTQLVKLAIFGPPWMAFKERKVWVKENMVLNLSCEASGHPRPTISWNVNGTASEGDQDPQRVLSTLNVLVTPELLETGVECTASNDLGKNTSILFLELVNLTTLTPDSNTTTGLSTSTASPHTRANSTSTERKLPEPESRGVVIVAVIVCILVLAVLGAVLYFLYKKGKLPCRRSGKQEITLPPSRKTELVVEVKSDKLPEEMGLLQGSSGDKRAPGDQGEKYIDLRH
- assay summary: flow cytometry, human MCAM CHO cells preincubated with antibody, competitor recombinant human laminin 411 at 20 ug/ml
Listed binders paired with reported IC50
Return type: number; implicit unit µg/mL.

rat anti-human MCAM monoclonal antibody clone 2107.4.10 (antibody, V domains shown, rat hybridoma antibody; elsewhere '83 or 84'); also called rodent 2107; murine 2107.4.10.18 anti-MCAM antibody) VH: QVQLKESGPGLVQSSQTLSLTCTVSGFSLTSNGVSWVRQPPGKGLEWIAAISSGGSTYYNSAFKSRLSISRNTSKSQVLLKMNSLQTEDTGMYFCARHRPFYFDYWGQGVMVTVSS VL: DIQVTQSPSLLSASVGDRVTLNCKGSQNIYKSLAWFRLKRGEAPKLLIYDANSLQTGIPSRFSGSGSGTDFTLTITSLQPEDVATYFCQQYYSGYTFGAGTKLELK ... 0.29

Continue with the binder presented below.
The reported IC50 of the binder mouse anti-human MCAM monoclonal antibody clone 1414.1.2 (antibody, V domains shown, mouse hybridoma antibody) VH: EIQLQQTGPELVKPGASVKISCKASGYSFTDYIMLWVKQSHGKSLEWIGNINPYSGSSGYNLKFKGKATLTVDKSSSTAYMQLNSLTSEDSAVYYCARGKDFAMDYWGQGTSVTVSS VL: DIVMSQSPSSLAVSAGEKVTMSCKSSQSLLNSSTRKNFLAWYQQKPGQSPKLLIYWASTRESGVPDRFTGSGSGTDFTLTISSVQAEDLAVYYCKQSYNRYTFGGGTKLEIK was 0.431

Cited source for all entries: patent US20150239980A1
